# Test system: biotinyl-Val-oxazolone
# EXPERIMENT_SUMMARY: self-aminoacylation, catalytic enhancement (BVO) (fold over background); higher = more active; k-Seq, kA / k0A0; sequences stand for … in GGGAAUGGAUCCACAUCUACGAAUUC…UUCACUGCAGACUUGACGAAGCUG
Variants at the floor of the assay were thinned out.
# binarize self-aminoacylation: threshold 1 inclusive, high side yes (1), low side no (0)

| SEQUENCE_RECORD | ASSAYED_SYSTEM | GROUP_LABEL |
| --- | --- | --- |
| AUUACCGUGGUCAUCGCGUGA [Fam2.1 aminoacylation ribozyme variant] | biotinyl-Val-oxazolone | yes (1) |
| GCACACUUCAAGCAACCGGUC [Fam1B.1 aminoacylation ribozyme variant] | biotinyl-Val-oxazolone | yes (1) |
| AAGUUUGCUAAUAGGUGCAAG [Fam3.1 aminoacylation ribozyme variant] | biotinyl-Val-oxazolone | no (0) |
| AUUCCCCUAGGUCAUAGGGUG [Fam2.2 aminoacylation ribozyme variant] | biotinyl-Val-oxazolone | yes (1) |
| CUACUUCAAACAAUCCGUCUC [Fam1A.1 aminoacylation ribozyme variant] | biotinyl-Val-oxazolone | no (0) |
| AGUCCCCUAGGUCAUCGGGUG [Fam2.2 aminoacylation ribozyme variant] | biotinyl-Val-oxazolone | yes (1) |
| AUUACCCAAGUCAUCGAGUGA [Fam2.1 aminoacylation ribozyme variant] | biotinyl-Val-oxazolone | yes (1) |
| AUUACCUUAGUCAUCGAGUGA [Fam2.1 aminoacylation ribozyme variant] | biotinyl-Val-oxazolone | yes (1) |
| CUACUUCAGAGAAUCGGUCUG [Fam1A.1 aminoacylation ribozyme variant] | biotinyl-Val-oxazolone | no (0) |
| AUUACCCUGGUCAUCGCGUCA [Fam2.1 aminoacylation ribozyme variant] | biotinyl-Val-oxazolone | yes (1) |
| AACUUUGCUAAUAUUCGCAAG [Fam3.1 aminoacylation ribozyme variant] | biotinyl-Val-oxazolone | yes (1) |
| CCAAACUUCAAGCAAUCGGUC [Fam1B.1 aminoacylation ribozyme variant] | biotinyl-Val-oxazolone | yes (1) |
| CUACUUCAAACCAUCGGUUUG [Fam1A.1 aminoacylation ribozyme variant] | biotinyl-Val-oxazolone | yes (1) |
| AUUACCUUGGUCAUCGUGUGA [Fam2.1 aminoacylation ribozyme variant] | biotinyl-Val-oxazolone | yes (1) |
| GCACACUUCAAGCAAUCCGUC [Fam1B.1 aminoacylation ribozyme variant] | biotinyl-Val-oxazolone | yes (1) |
| AUUACCUUGGUGAUCGAGUGA [Fam2.1 aminoacylation ribozyme variant] | biotinyl-Val-oxazolone | yes (1) |
| AGUCACCUAGGUCAGCGGGUG [Fam2.2 aminoacylation ribozyme variant] | biotinyl-Val-oxazolone | yes (1) |
| CUACUUCAAACAAUCGGUGAG [Fam1A.1 aminoacylation ribozyme variant] | biotinyl-Val-oxazolone | yes (1) |

----------
# System: biotinyl-Val-oxazolone
# EXPERIMENT_SUMMARY: self-aminoacylation, catalytic enhancement (BVO) (fold over background); higher = more active; k-Seq, kA / k0A0; sequences stand for … in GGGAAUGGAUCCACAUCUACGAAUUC…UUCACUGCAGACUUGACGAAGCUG
Fewer inactive variants are shown than the library holds.
Assign class by self-aminoacylation: not lower than 1 means T; lower than 1 means F.

| SEQUENCE_RECORD | ASSAYED_SYSTEM | GROUP_LABEL |
| --- | --- | --- |
| AAGUUUGCUAAUACACGCAAG [Fam3.1 aminoacylation ribozyme variant] | biotinyl-Val-oxazolone | F |
| CUAGUUCAAACAAUCGGUCUC [Fam1A.1 aminoacylation ribozyme variant] | biotinyl-Val-oxazolone | F |
| AAGUUAGCUAAUAGUCGCAAA [Fam3.1 aminoacylation ribozyme variant] | biotinyl-Val-oxazolone | T |
| AUUACCAUGGUGAUCGAGUGA [Fam2.1 aminoacylation ribozyme variant] | biotinyl-Val-oxazolone | T |
| CUUACCCUGGUCAUCGAGUGG [Fam2.1 aminoacylation ribozyme variant] | biotinyl-Val-oxazolone | T |

----------
# Test system: biotinyl-Trp-oxazolone
# EXPERIMENT_SUMMARY: self-aminoacylation, catalytic enhancement (BWO) (fold over background); higher = more active; k-Seq, kA / k0A0; sequences stand for … in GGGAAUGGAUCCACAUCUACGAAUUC…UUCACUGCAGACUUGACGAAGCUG
Fewer inactive variants are shown than the library holds.
Mark satisfied for reported self-aminoacylation of 2 or greater; mark not satisfied for anything smaller.

| SEQUENCE_RECORD | ASSAYED_SYSTEM | GROUP_LABEL |
| --- | --- | --- |
| AGUACCCCGGUCAUCGAGUGA [Fam2.1 aminoacylation ribozyme variant] | biotinyl-Trp-oxazolone | satisfied |
| CCACACUUCCAGCAAUCGGCC [Fam1B.1 aminoacylation ribozyme variant] | biotinyl-Trp-oxazolone | satisfied |
| UUACUUCAAACAAUCGGUCUA [Fam1A.1 aminoacylation ribozyme variant] | biotinyl-Trp-oxazolone | satisfied |
| CAGCUUGCUAAUAGUCGCAAG [Fam3.1 aminoacylation ribozyme variant] | biotinyl-Trp-oxazolone | not satisfied |
| CUACUUCAGACAAGCGGUCUG [Fam1A.1 aminoacylation ribozyme variant] | biotinyl-Trp-oxazolone | not satisfied |
| CUACUUCAAAUAAUCGGUCAG [Fam1A.1 aminoacylation ribozyme variant] | biotinyl-Trp-oxazolone | satisfied |
| CUACUUCAAAAAGUCGGUCUG [Fam1A.1 aminoacylation ribozyme variant] | biotinyl-Trp-oxazolone | not satisfied |
| AAGAUUGCUAAUAUUCGCAAG [Fam3.1 aminoacylation ribozyme variant] | biotinyl-Trp-oxazolone | satisfied |
| CUACUUCAAACAAGCGGACUG [Fam1A.1 aminoacylation ribozyme variant] | biotinyl-Trp-oxazolone | not satisfied |
| AUUAACCUGGUCAUCGAGUGA [Fam2.1 aminoacylation ribozyme variant] | biotinyl-Trp-oxazolone | satisfied |
| AAGUUGACUAAUAGUCGCAAG [Fam3.1 aminoacylation ribozyme variant] | biotinyl-Trp-oxazolone | not satisfied |
| AUUACCCUUGUCAUCGCGUGA [Fam2.1 aminoacylation ribozyme variant] | biotinyl-Trp-oxazolone | satisfied |
| UAUUUUGCUAAUAGUCGCAAG [Fam3.1 aminoacylation ribozyme variant] | biotinyl-Trp-oxazolone | not satisfied |
| CCAGAAUUCAAGCAAUCGGUC [Fam1B.1 aminoacylation ribozyme variant] | biotinyl-Trp-oxazolone | not satisfied |
| CCUCACUUCAUGCAAUCGGUC [Fam1B.1 aminoacylation ribozyme variant] | biotinyl-Trp-oxazolone | not satisfied |
| CCACACUUCAAGUCAUCGGUC [Fam1B.1 aminoacylation ribozyme variant] | biotinyl-Trp-oxazolone | not satisfied |
| AUUACCCUGGUCAUUCAGUGA [Fam2.1 aminoacylation ribozyme variant] | biotinyl-Trp-oxazolone | satisfied |
| AUUCACCUAUGUCAUCGGAUG [Fam2.2 aminoacylation ribozyme variant] | biotinyl-Trp-oxazolone | not satisfied |
| AUGCACCUAGUUCAUCGGGUG [Fam2.2 aminoacylation ribozyme variant] | biotinyl-Trp-oxazolone | satisfied |
| UCACACUCCAAGCAAUCGGUC [Fam1B.1 aminoacylation ribozyme variant] | biotinyl-Trp-oxazolone | not satisfied |
| AAGUUUGCUAGUAGUCGCAGG [Fam3.1 aminoacylation ribozyme variant] | biotinyl-Trp-oxazolone | not satisfied |
| AAGUGUGCUAAUAGUCGAAAG [Fam3.1 aminoacylation ribozyme variant] | biotinyl-Trp-oxazolone | satisfied |
| AUUACCGUGGUCAUCAAGUGA [Fam2.1 aminoacylation ribozyme variant] | biotinyl-Trp-oxazolone | satisfied |
| CAGUUUGCCAAUAGUCGCAAG [Fam3.1 aminoacylation ribozyme variant] | biotinyl-Trp-oxazolone | not satisfied |
| ACACACGUCAAGCAAUCGGUC [Fam1B.1 aminoacylation ribozyme variant] | biotinyl-Trp-oxazolone | satisfied |
| ACUCACCUACGUCAUCGGGUG [Fam2.2 aminoacylation ribozyme variant] | biotinyl-Trp-oxazolone | satisfied |
| AUUACCCUGGUCAGCGAGUGU [Fam2.1 aminoacylation ribozyme variant] | biotinyl-Trp-oxazolone | satisfied |
| AUUGACCUCGGUCAUCGGGUG [Fam2.2 aminoacylation ribozyme variant] | biotinyl-Trp-oxazolone | satisfied |
| CCACACAUCAAGCAAUGGGUC [Fam1B.1 aminoacylation ribozyme variant] | biotinyl-Trp-oxazolone | not satisfied |
| CCACACUUCACGCAACCGGUC [Fam1B.1 aminoacylation ribozyme variant] | biotinyl-Trp-oxazolone | not satisfied |
| AUUACCCUCGUCAUCGAGUAA [Fam2.1 aminoacylation ribozyme variant] | biotinyl-Trp-oxazolone | not satisfied |
| AAGUUUCGUAAUAGUCGCAAG [Fam3.1 aminoacylation ribozyme variant] | biotinyl-Trp-oxazolone | not satisfied |

----------
# Test system: biotinyl-Trp-oxazolone
# EXPERIMENT_SUMMARY: self-aminoacylation, catalytic enhancement (BWO) (fold over background); higher = more active; k-Seq, kA / k0A0; sequences stand for … in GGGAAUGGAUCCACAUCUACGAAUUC…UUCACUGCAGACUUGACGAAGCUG
Variants at the floor of the assay were thinned out.
Recorded self-aminoacylation by entry
PROPERTY_LABEL: self-aminoacylation

| SEQUENCE_RECORD | RESULT |
| --- | --- |
| CCACCCUUCAAGCAAUCGGCC [Fam1B.1 aminoacylation ribozyme variant] | 3.11 |
| CUACUUCAACCAAACGGUCUG [Fam1A.1 aminoacylation ribozyme variant] | 0.55 |
| AUACACCUAGGUCAUCGGUUG [Fam2.2 aminoacylation ribozyme variant] | 1.54 |
| CUACUUCACACAAUCGGUCUG [Fam1A.1 aminoacylation ribozyme variant] | 0.689 |
| AUUAACCUAGGUCAUCGGUUG [Fam2.2 aminoacylation ribozyme variant] | 1.05 |
| CUACUUCGAACAAUCGGUCGG [Fam1A.1 aminoacylation ribozyme variant] | 0.974 |
| AUUCAGCUAGGUCGUCGGGUG [Fam2.2 aminoacylation ribozyme variant] | 3.08 |
| AUUACACUGGUCAUCGAGUGA [Fam2.1 aminoacylation ribozyme variant] | 6.94 |
